- target under test: human recombinant COX2 (hCOX2) (UniProt P35354)
- procedure details: LCMS-based COX2 enzymatic inhibition assay (PGE2 quantification)
- Format: biochemical
- Parameters: COX2 2 minutes pge2/pge2d4 area ratio Avg; other: 2 minutes; readout pge2/pge2d4 area ratio; average; COX2 2 minutes pge2/pge2d4 area ratio Avg; LLE; average LLE; COX2 2 minutes pge2 area (counts) Avg; readout pge2 area (counts); other: 2 min; "ovine COX2 (oCOX2), human recombinant COX2 (hCOX2)"
- experimental conditions: 2 minutes; readout pge2 area (counts); average; read-out: COX2 2 minutes pge2 area (counts) Avg. IC50
Assign IC50 to each entry below.

{"columns": ["molecule", "IC50"],
 "data": [
  ["CS(=O)(=O)c1ccc(-n2ccc3ccc(Nc4cccnc4)nc32)cc1 [Compound 238]", "3.28 µM"],
  ["COCc1ccc(NCc2cccs2)nc1-c1ccc(S(C)(=O)=O)cc1 [Compound 100]", "0.106 µM"],
  ["CS(=O)(=O)c1ccc(-c2cc(F)cc(OCc3cccs3)n2)cc1 [Compound 6]", "0.0082 µM"]
]}

Please give IC50 for each item listed below.
1. CS(=O)(=O)c1ccc(-c2cncc(N3CCCCC3)n2)cc1 [Compound 262]
2. CCOc1ncc(NCc2cccs2)nc1-c1ccc(S(C)(=O)=O)cc1 [Compound 25]

Data returned:
1. 4.04 µM
2. 0.0196 µM

Data request: Tell me the measured IC50 of Cc1coc(C(=O)Nc2cccc(-c3ccc(S(C)(=O)=O)cc3)n2)c1 [Compound 276] , please.
Data returned: 4.08 µM

---

Assign COX2 2 minutes pge2 area (counts) Avg. LLE to each entry below.
- target under test: human recombinant COX2 (hCOX2)
- procedure details: LCMS-based COX2 enzymatic inhibition assay (PGE2 quantification)
- Assay type: biochemical
- Parameters: COX2 2 minutes pge2/pge2d4 area ratio Avg; other: 2 minutes; readout pge2/pge2d4 area ratio; average; COX2 2 minutes pge2/pge2d4 area ratio Avg; LLE; average LLE; COX2 2 minutes pge2 area (counts) Avg; readout pge2 area (counts); other: 2 min; "ovine COX2 (oCOX2), human recombinant COX2 (hCOX2)"
- experimental conditions: 2 minutes; readout pge2 area (counts); average LLE
- From the text: We have adapted a previously reported cyclooxygenase enzymatic assay utilizing LCMS quantification of PGE2 as the product of COX-1 and COX2 catalyzed conversion of arachidonic acid to evaluate the binding properties of newly synthesized ligands [Cao, 2011]. […] Using these enzymatic assays, we have evaluated>200 newly synthesized ligands against COX2 and >20 ligands against COX-1. […]

Record excerpt, results attached:
{"columns": ["smiles entry", "target under test", "value"],
 "data": [
  ["CS(=O)(=O)c1ccc(-n2ccc3ccc(NCc4ccco4)nc32)cc1", "human recombinant COX2 (hCOX2)", 2.953],
  ["COc1ncc(NCc2ccncc2)nc1-c1ccc(S(C)(=O)=O)cc1", "human recombinant COX2 (hCOX2)", 5.147],
  ["CS(=O)(=O)c1ccc(-c2cncc(NCc3ccccc3)n2)cc1", "human recombinant COX2 (hCOX2)", 5.139]
]}

Data request: # returns recorded COX2 2 minutes pge2 area (counts) Avg. LLE (system: human recombinant COX2 (hCOX2)) for NS(=O)(=O)c1ccc(-c2cncc(OCc3cccs3)n2)cc1
Data returned: 6.512
